Data provenance: paper PMC10644722

- assayed.target: hPTP1B1-400 (Homo sapiens, UniProt P18031)
- assay.overview: PTP1B inhibition assay (spectrophotometric, 4-nitrophenyl phosphate)
- Assay type: biochemical
- run.conditions: enzyme 66 nM, 4-NP 0.125 mM, Tris-HCl pH 6.8, 20 min, room temperature; read-out: IC50
Assign IC50 to each entry below.
Entry rule: numbers only, all in µM.

Record request: IC50 value, item C[C@H]1C(=O)CC[C@@H]2[C@]1(C)CC[C@H]1[C@@]2(C)CC[C@@]2(C)[C@@H]3CC(C)(C)CC[C@]3(C)CC[C@]12C
888

Record request: IC50 value, item COc1cc(O)cc(CCc2cccc(O)c2)c1
247

Record request: IC50 value, item O=C(OCC1OC(Oc2c(-c3ccc(O)c(O)c3)oc3cc(O)cc(O)c3c2=O)C(O)C(O)C1O)c1ccccc1 (centres unmarked)
88.8

Record request: IC50 value, item CC(=O)OC[C@H]1O[C@@H](Oc2cc(O)cc3oc(=O)cc(-c4ccc(O)c(O)c4)c23)[C@H](O)[C@@H](O)[C@H]1O
254

Record request: IC50 value, item CC(=O)OC(C)(C)/C=C/C(=O)[C@](C)(O)[C@H]1[C@H](O)C[C@@]2(C)[C@@H]3CC=C4[C@@H](C[C@H](O[C@@H]5O[C@H](CO)[C@@H](O)[C@H](O)[C@H]5O)C(=O)C4(C)C)[C@]3(C)C(=O)C[C@]12C
564

Record request: IC50 value, item CC(=O)OCC(C)C1CCC2(C)C1CCC1(C)C2CCC2C3(C)CCCC(C)(C)C3CCC21C (stereo not drawn) [Compound 90, 21-α-H-Hopane acetate]
884

Record request: IC50 value, item CC(=CCCC(C)C1CCC2(C)C3=CCC4C(C)(C)C(=O)CCC4(C)C3CCC12C)C(=O)O (centres unmarked)
49.1

Record request: IC50 value, item CC(=CCCC(C)C1CCC2(C)C3=C(CCC12C)C1(C)CCC(=O)C(C)(C)C1CC3)C(=O)O (centres unmarked)
419

Record request: IC50 value, item C=C1C(=O)O[C@@H]2C[C@@]3(C)CCC=C(C)[C@@H]3C[C@H]12
443

Record request: IC50 value, item CC=CC1=CC=CC(=C2C(=O)CNC2=O)O1
79.6

Record request: IC50 value, item CCC(C=CC(C)C1CCC2C3=CCC4CC(O)CCC4(C)C3CCC21C)C(C)C (centres unmarked)
989

---

- assayed.target: hPTP1B1-400 (Homo sapiens, UniProt P18031)
- Sequence (P18031 1-400): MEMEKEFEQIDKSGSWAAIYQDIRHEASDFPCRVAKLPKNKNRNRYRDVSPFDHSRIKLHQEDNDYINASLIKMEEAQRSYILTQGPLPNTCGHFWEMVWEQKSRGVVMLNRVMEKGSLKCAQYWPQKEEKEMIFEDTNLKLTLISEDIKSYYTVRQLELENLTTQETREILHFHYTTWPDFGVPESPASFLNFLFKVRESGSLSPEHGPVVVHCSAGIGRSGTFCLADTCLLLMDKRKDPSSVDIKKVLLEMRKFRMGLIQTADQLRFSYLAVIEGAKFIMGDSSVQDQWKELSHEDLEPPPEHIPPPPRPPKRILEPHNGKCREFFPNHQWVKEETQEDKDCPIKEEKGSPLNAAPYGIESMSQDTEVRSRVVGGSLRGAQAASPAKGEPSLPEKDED
- assay.overview: PTP1B inhibition assay (spectrophotometric, 4-nitrophenyl phosphate)
- Type: biochemical
- run.conditions: enzyme 66 nM, 4-NP 0.125 mM, Tris-HCl pH 6.8, 20 min, room temperature; read-out: IC50
measurement.type: pIC50
Keep in mind that pIC50 stands for -log10 of concentration in molar terms.

Record request: pIC50 value, item C[C@H]1C(=O)CC[C@@H]2[C@]1(C)CC[C@H]1[C@@]2(C)CC[C@@]2(C)[C@@H]3CC(C)(C)CC[C@]3(CO)CC[C@]12C
4.48

Record request: pIC50 value, item C=CC(C)(C)C12CC3(O)c4nc5ccccc5c(=O)n4C(C(C)C)C(=O)N3C1N(C(C)=O)c1ccccc12 (stereo not drawn)
4.72

Record request: pIC50 value, item O=C1C[C@@H](c2ccccc2)Oc2cc(O)cc(O)c21
3.51

Record request: pIC50 value, item COC(=O)/C(C)=C\CC[C@H](C)[C@@H]1CC[C@]2(C)C3=CCC4C(C)(C)C(=O)CC[C@]4(C)C3CC[C@@]12C (stereo partly drawn)
3.49

Record request: pIC50 value, item C/C(=C/CC[C@H](C)[C@@H]1CC[C@]2(C)C3=CC[C@H]4C(C)(C)[C@H](O)CC[C@]4(C)[C@H]3CC[C@@]12C)C(=O)O [Compound 49, 3α-Hydroxymasticadienonic acid]
3.82

Record request: pIC50 value, item C=CC(C)(C)[C@@]12Nc3ccccc3[C@]1(O)C[C@@]1(O)c3nc4ccccc4c(=O)n3[C@@H](C(C)C)C(=O)N12
4.59

Record request: pIC50 value, item O=C(O[C@@H]1Cc2c(O)cc(O)cc2O[C@@H]1c1ccc(O)c(O)c1)c1cc(O)c(O)c(O)c1 [Compound 82, (-)-Epicatechin 3-O-gallate]
3.85

Record request: pIC50 value, item CC(C)(O)CCC(=O)[C@](C)(O)[C@H]1[C@H](O)C[C@@]2(C)[C@@H]3CC=C4[C@@H](C[C@H](O)[C@@H](O[C@@H]5O[C@H](CO)[C@@H](O)[C@H](O)[C@H]5O)C4(C)C)[C@]3(C)C(=O)C[C@]12C
3.45

Record request: pIC50 value, item C=C(C)C(C)(C)CCC(C)C1CCC2(C)C3CCC4C(C)(CCC(O)C4(C)C)C3=CCC12C (stereo not drawn)
3.40

Record request: pIC50 value, item CCCCCCCCCCCCCCCCCCCCOC(=O)C=Cc1ccc(O)c(OC)c1 [Compound 43, Eicosyl 4-hydroxy-3-methoxy-cinnamate]
3.19

Record request: pIC50 value, item COc1ccc([C@H]2OC[C@H]3[C@@H]2CO[C@@H]3c2ccc3c(c2OC)OCO3)cc1OC
3.90

Record request: pIC50 value, item COc1cc(C)c2c(=O)c3c(O)cc(OC)cc3oc2c1
4.05

---

- assayed.target: hPTP1B1-400 (Homo sapiens)
- assay.overview: PTP1B inhibition assay (spectrophotometric, 4-nitrophenyl phosphate)
- Format: biochemical
- run.conditions: negative log of the IC50 in Molar
measurement.type: pIC50
Please give only the number in your answer, with no unit.

Record request: pIC50 value, item O=C(O[C@@H]1Cc2c(O)cc(O)cc2O[C@@H]1c1ccc(O)c(O)c1)c1cc(O)c(O)c(O)c1 [Compound 82, (-)-Epicatechin 3-O-gallate]
3.85

Record request: pIC50 value, item C=C1C(=O)O[C@@H]2C[C@@]3(C)CCC=C(C)[C@@H]3C[C@H]12
3.35

Record request: pIC50 value, item CC(=O)OC[C@H]1O[C@@H](Oc2cc(O)cc3oc(=O)cc(-c4ccc(O)cc4)c23)[C@H](O)[C@@H](O)[C@H]1O
3.46

Record request: pIC50 value, item Oc1cccc(CCc2ccc3c(c2)OCO3)c1
3.18

Record request: pIC50 value, item CC(=O)OC(C)(C)/C=C/C(=O)[C@](C)(O)[C@H]1[C@H](O)C[C@@]2(C)[C@@H]3CC=C4[C@@H](C[C@H](O[C@@H]5O[C@H](CO)[C@@H](O)[C@H](O)[C@H]5O)C(=O)C4(C)C)[C@]3(C)C(=O)C[C@]12C
3.25

Record request: pIC50 value, item CC(C)(O)CCC(=O)[C@](C)(O)[C@H]1[C@H](O)C[C@@]2(C)[C@@H]3CC=C4[C@@H](C[C@H](O)[C@@H](O[C@@H]5O[C@H](CO)[C@@H](O)[C@H](O)[C@H]5O)C4(C)C)[C@]3(C)C(=O)C[C@]12C
3.45

Record request: pIC50 value, item C=CC(C)(C)[C@@]12Nc3ccccc3[C@]1(O)C[C@@]1(O)c3nc4ccccc4c(=O)n3[C@@H](C(C)C)C(=O)N12
4.59

Record request: pIC50 value, item COc1c2c(cc3oc(C)cc(=O)c13)OC(C)(C)[C@H](O)C2 [Compound 94, (+)-5-Methoxyhamaudol]
3.53

Record request: pIC50 value, item COc1cc(=O)oc2c(O[C@@H]3O[C@H](CO)[C@@H](O)[C@H](O)[C@H]3O)ccc(C)c12
3.78

Record request: pIC50 value, item COc1cc(O[C@@H]2O[C@H](CO[C@@H]3OCC(O)(CO)[C@H]3O)[C@@H](O)[C@H](O)[C@H]2O)c2c(-c3ccc(O)c(O)c3)cc(=O)oc2c1 (stereo partly shown)
3.45

---

- assayed.target: UniProt P18031
- Sequence (P18031 1-400): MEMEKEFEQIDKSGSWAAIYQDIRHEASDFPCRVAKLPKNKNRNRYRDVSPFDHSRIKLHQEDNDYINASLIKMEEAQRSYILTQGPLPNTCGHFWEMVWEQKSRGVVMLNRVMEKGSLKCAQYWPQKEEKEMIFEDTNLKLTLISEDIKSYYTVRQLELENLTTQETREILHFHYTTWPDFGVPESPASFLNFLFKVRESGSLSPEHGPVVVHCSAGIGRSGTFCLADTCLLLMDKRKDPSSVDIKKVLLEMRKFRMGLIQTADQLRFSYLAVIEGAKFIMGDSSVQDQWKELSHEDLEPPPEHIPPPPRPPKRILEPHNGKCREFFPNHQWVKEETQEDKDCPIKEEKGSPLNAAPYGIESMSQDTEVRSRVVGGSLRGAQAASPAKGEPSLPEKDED
- assay.overview: Kinetic analysis of PTP1B inhibition
- Assay type: biochemical
- run.conditions: parabolic competitive model (Eq. 4), second inhibitor molecule; read-out: KIC2
measurement.type: pKi
Keep in mind that pKi stands for -log10 of concentration in molar terms.

Record request: pKi value, item CC=CC1=CC=CC(=C2C(=O)CNC2=O)O1 [Compound 6, E/Z-vermelhotin]
4.70
